# run description: chemical genetic growth profiling, strain panel (AID 1159580);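 note: tested at 20 µM; growth read once vehicle control cultures reached saturation at 30 °C; lower values mean less growth of the strain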
# condition notes: S. cerevisiae deletion strains, growth OD, locus YDR335W, strain msn5
The campaign covered roughly 5,500 compounds. About 2,000 (36%) were called active. Not shown: some 18% with an inconclusive outcome. Cut-off read from the data, not from the text of the source: active = normalized growth mostly below about 0.91 (no sharp cut-off); inconclusive = no clear call, values can overlap the other calls; inactive = mostly above about 0.92. The list shows a part of the results.
// classify into active, inactive

Example entries and their recorded answers appear below.
- COc1ccccc1/C=C\C(=O)O: inactive
- CC(C)(C)NCC(O)c1cc(O)cc(O)c1 (centres undefined): inactive
- COC(=O)c1c(C)cc(OC)cc1O: inactive

INPUT: Check the results log: what was the call for COc1cc(OC)c2c(=O)c(O)c(-c3ccc(OC)c(OC)c3)oc2c1 ?
OUTPUT: active

INPUT: Check the results log: what was the call for CC(=O)[C@@]1(O)CCC2C3C[C@H](C)C4=CC(=O)C=CC4(C)[C@@]3(F)[C@@H](O)C[C@@]21C (some centres undefined) ?
OUTPUT: inactive

INPUT: Check the results log: what was the call for O=c1ccc2cc(OC3OC(CO)C(O)C(O)C3O)c(O)cc2o1 (centres undefined) ?
OUTPUT: inactive

Attribution: PubChem BioAssay AID1159580
